Consider the following variants; for each one, report its protein stability index.
B1: KIAA0774 (parent)
chain: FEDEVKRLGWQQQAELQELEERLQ

variants of: B1; assay: protein stability index of a GFP-peptide fusion (GPS, HEK-293T) (PSI 1-6); higher = more stable; conditions: c terminus: a fixed tail appended;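 also: lentivirally expressed fusions sorted by FACS into six bins by GFP to DsRed ratio, PSI derived from sequencing read proportions per bin multiplied by bin number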
Respond using a number only.

Inquiry: Would you kindly share the measured protein stability index for FEDEVKRLGWQQQAELQEWEERLQ [L19W] ?
Reply text: 3.92

Inquiry: Entry FEDEVKRLGWQQQAELQELEEMLQ [R22M] : reported protein stability index = ?
Reply text: 4.04

Inquiry: Look up protein stability index for this variant: FEDEVKHLGWQQQAELQELEERLQ [R7H]
Reply text: 4.04

Inquiry: Which value of protein stability index has been reported for FEDEKKRLGWQQQAELQELEERLQ [V5K] in the records?
Reply text: 2.54

Inquiry: Tell me the measured protein stability index of FDDEVKRLGWQQQAELQELEERLQ [E2D] , please.
Reply text: 3.79

Inquiry: Which protein stability index reading was recorded for the variant FEDNVKRLGWQQQAELQELEERLQ [E4N] ?
Reply text: 3.49

Inquiry: Give the measured protein stability index of FEDEVDRLGWQQQAELQELEERLQ [K6D] .
Reply text: 3.75

Inquiry: Would you kindly share the measured protein stability index for FEDEVKRLGWQQQAELQELEERIQ [L23I] ?
Reply text: 3.97

Inquiry: Can you share its protein stability index? I mean this variant: FEDEVKRLGWQQQAELHELEERLQ [Q17H]
Reply text: 4.34

Inquiry: Which protein stability index is reported for this variant? FEDEVKRIGWQQQAELQELEERLQ [L8I]
Reply text: 3.86

Inquiry: Which protein stability index is listed for FEDEVKRLGWQQQAELQPLEERLQ [E18P] ?
Reply text: 4.72
